Assayed system: G2019S LRRK2 (Homo sapiens, UniProt Q5S007, G2019S)
Construct: expressed in transfected cells; host or cells: HEK293 (ATCC CRL-1573), transient transfection, mammalian expression vector with ubiquitin promoter
Sequence (Q5S007 whole entry G2019S): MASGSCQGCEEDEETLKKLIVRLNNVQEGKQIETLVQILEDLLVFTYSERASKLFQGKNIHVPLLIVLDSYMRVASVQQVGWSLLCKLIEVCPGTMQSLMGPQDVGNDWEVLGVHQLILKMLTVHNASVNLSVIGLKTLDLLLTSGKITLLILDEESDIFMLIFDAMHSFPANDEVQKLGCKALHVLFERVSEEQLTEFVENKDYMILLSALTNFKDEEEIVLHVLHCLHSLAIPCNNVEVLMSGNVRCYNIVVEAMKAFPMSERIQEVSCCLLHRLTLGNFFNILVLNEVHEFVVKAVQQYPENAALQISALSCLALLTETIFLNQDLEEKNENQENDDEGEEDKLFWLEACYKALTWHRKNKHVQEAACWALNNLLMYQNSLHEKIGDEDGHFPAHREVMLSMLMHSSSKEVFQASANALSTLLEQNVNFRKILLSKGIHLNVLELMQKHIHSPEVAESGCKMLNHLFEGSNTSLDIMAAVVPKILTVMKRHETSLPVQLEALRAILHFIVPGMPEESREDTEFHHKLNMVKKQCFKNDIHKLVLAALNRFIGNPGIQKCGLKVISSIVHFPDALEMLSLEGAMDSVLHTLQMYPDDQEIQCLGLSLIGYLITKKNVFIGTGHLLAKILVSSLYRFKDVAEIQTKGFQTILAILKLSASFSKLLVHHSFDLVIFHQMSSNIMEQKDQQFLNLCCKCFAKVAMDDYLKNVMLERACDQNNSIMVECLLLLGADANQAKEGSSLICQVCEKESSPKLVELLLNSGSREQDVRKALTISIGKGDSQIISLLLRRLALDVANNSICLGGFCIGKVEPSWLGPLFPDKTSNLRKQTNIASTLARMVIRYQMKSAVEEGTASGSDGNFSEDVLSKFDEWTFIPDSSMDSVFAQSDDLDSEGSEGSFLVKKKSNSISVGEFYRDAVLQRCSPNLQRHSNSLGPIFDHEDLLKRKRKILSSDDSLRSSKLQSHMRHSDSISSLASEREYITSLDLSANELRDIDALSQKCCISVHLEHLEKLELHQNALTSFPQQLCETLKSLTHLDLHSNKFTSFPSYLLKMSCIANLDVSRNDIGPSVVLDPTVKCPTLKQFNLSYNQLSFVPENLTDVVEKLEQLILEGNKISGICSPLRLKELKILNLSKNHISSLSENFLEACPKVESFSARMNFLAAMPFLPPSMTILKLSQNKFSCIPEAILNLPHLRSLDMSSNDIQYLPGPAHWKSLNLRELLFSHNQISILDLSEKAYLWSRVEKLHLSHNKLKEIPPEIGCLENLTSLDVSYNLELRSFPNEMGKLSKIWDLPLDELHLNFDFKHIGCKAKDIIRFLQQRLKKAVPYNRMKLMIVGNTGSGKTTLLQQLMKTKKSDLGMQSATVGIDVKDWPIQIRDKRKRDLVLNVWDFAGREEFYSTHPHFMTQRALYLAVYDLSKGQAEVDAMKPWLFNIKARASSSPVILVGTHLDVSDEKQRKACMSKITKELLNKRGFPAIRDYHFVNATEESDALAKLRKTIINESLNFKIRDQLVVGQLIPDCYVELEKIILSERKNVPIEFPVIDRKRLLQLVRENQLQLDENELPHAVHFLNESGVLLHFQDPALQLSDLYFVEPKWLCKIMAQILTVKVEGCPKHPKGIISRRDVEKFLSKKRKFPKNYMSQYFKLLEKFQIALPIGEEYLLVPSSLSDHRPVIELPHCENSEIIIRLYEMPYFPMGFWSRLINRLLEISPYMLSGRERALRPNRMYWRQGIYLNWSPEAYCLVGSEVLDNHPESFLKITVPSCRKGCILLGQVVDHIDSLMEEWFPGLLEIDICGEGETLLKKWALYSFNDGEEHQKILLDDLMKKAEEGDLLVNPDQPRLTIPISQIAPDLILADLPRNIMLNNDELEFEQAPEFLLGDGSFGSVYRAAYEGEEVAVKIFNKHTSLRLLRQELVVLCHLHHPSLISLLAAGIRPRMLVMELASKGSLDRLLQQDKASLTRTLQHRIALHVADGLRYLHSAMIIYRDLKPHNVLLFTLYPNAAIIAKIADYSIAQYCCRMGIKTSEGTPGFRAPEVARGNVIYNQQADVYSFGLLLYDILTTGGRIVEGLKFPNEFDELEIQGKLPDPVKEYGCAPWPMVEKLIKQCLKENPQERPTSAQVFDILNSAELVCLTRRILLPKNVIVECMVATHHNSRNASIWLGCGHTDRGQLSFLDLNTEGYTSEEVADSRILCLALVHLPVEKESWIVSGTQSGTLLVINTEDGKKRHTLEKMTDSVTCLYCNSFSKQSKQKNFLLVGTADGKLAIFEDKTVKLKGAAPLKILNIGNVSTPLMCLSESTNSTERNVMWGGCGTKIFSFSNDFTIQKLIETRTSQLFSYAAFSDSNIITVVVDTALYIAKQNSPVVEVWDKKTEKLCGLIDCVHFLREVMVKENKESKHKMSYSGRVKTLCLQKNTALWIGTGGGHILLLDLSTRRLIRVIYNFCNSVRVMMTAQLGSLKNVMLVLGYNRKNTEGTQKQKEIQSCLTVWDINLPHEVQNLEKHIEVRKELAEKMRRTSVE
Test method notes: LRRK2 degradation assay, HiBit-tagged G2019S LRRK2 expressed from plasmid in HEK293 cells (Nano-Glo Dual-Luciferase)
Format: cell-based
Condition details: HiBit-tagged G2019S LRRK2 in HEK293 cells, 24 hours
Parameter measured: Dmax

{"Compound": "CC1(Oc2ccc3[nH]nc(-c4ccnc(N5CC(F)(CN6CCN(CC7CCN(c8ccc9c(c8)C(=O)N(C8CCC(=O)NC8=O)C9=O)CC7)CC6)C5)c4)c3c2)CC1 (stereo not drawn)", "Parameter measured": "Dmax", "Reported value": "50 to 70%"}
{"Compound": "C[C@H]1CN(c2cc(-c3n[nH]c4cc(F)c(OC5(C)CC5)cc34)ncn2)CCN1CC1CCN(CC2CCN(c3ccc4c(c3)C(=O)N(C3CCC(=O)NC3=O)C4=O)CC2)CC1 (stereo partly drawn)", "Parameter measured": "Dmax", "Reported value": "< 50%"}
{"Compound": "CC1(Oc2ccc3[nH]nc(-c4ccnc(N5CCC(O[C@H]6C[C@H](OC7CCN(c8ccc9c(c8)C(=O)N(C8CCC(=O)NC8=O)C9=O)CC7)C6)CC5)c4)c3c2)CC1 (stereo partly drawn)", "Parameter measured": "Dmax", "Reported value": "< 50%"}
{"Compound": "CC1(Oc2ccc3[nH]nc(-c4cc(N5CCC(C(=O)N6CCC(CN7CCN(c8ccc9c(c8)C(=O)N(C8CCC(=O)NC8=O)C9=O)CC7)CC6)CC5)ncn4)c3c2)CC1 (stereo not drawn)", "Parameter measured": "Dmax", "Reported value": "50 to 70%"}
{"Compound": "CC1(Oc2ccc3n[nH]c(-c4cc(N5CCC(CN6CCN(CC7CCN(c8ccc9c(c8)CN(C8CCC(=O)NC8=O)C9=O)CC7)CC6)CC5)ncn4)c3c2)CC1 (stereo not drawn)", "Parameter measured": "Dmax", "Reported value": "≥ 70%"}
{"Compound": "CC1(Oc2ccc3n[nH]c(-c4cc(N5CCN(C(=O)C6CCN(CC7CCN(c8ccc9c(c8)C(=O)N(C8CCC(=O)NC8=O)C9=O)CC7)CC6)CC5)ncn4)c3c2)CC1 (stereo not drawn)", "Parameter measured": "Dmax", "Reported value": "< 50%"}
{"Compound": "CC1(Oc2ccc3[nH]nc(-c4cc(N5CCO[C@@H](CN6CCC(OC7CCN(c8ccc9c(c8)C(=O)N(C8CCC(=O)NC8=O)C9=O)CC7)CC6)C5)ncn4)c3c2)CC1 (stereo partly drawn)", "Parameter measured": "Dmax", "Reported value": "50 to 70%"}
{"Compound": "CC1(Oc2ccc3[nH]nc(-c4cc(N5CCC(CN6CC(CN7CCN(c8ccc9c(c8)C(=O)N(C8CCC(=O)NC8=O)C9=O)CC7)C6)CC5)ncn4)c3c2)CC1 (stereo not drawn)", "Parameter measured": "Dmax", "Reported value": "50 to 70%"}
{"Compound": "C[C@H]1CN(c2cc(-c3[nH]nc4ccc(OC5(C)CC5)cc34)ncn2)CCN1CC1CCN(CC2CCN(c3cccc4c3CN(C3CCC(=O)NC3=O)C4=O)CC2)CC1 (stereo partly drawn)", "Parameter measured": "Dmax", "Reported value": "50 to 70%"}

Data provenance is patent US12559506B2.
